The reader will find reported terephthalic acid values listed item by item below.
# Assay: terephthalic acid (TPA) released, HPLC; higher = more TPA released; extreme values may be limits of the assay
# Setup conditions: PET substrate: cryPow; 70 °C; pH 4.5; 24 h
Assay metric: terephthalic acid (mM)

residue_string="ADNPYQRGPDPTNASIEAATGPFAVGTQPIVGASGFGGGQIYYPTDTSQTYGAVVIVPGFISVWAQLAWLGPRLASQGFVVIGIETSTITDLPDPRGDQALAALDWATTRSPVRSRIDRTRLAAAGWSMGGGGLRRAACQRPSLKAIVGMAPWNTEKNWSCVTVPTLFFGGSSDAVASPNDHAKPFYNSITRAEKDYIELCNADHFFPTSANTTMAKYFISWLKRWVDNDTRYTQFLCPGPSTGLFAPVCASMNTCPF [CaPETaseM9]" recorded_result=0
residue_string="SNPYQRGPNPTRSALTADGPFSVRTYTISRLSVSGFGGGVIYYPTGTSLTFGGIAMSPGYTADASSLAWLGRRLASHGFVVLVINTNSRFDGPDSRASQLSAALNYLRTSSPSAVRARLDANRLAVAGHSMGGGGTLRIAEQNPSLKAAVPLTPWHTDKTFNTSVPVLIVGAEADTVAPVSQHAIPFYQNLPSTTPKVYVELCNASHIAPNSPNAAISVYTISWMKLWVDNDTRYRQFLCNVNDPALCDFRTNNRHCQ [LCC-ICCG RIP]" recorded_result=0.00368
residue_string="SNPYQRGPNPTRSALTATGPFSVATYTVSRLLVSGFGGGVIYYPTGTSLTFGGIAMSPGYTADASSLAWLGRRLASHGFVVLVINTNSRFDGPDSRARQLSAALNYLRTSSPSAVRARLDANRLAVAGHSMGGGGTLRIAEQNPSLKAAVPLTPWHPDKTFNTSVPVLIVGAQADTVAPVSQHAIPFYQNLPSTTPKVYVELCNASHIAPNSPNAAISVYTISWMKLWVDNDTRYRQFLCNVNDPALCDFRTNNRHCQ [LCC-ICCG I6M]" recorded_result=0
residue_string="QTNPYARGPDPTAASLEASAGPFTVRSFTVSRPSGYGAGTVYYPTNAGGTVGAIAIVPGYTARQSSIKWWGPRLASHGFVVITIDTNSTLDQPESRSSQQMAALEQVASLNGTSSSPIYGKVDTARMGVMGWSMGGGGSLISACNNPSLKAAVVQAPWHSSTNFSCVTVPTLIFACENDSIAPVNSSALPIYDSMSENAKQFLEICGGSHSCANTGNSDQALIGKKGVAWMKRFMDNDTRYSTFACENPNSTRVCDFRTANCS [Z1-PETase]" recorded_result=0
residue_string="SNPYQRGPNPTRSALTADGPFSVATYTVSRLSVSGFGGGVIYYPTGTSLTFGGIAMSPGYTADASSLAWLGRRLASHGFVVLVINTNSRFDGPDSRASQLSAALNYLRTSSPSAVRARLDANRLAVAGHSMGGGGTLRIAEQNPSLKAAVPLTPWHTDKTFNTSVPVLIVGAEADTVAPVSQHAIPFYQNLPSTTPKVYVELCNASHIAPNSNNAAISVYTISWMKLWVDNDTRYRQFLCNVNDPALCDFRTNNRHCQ [LCC-ICCG]" recorded_result=0
residue_string="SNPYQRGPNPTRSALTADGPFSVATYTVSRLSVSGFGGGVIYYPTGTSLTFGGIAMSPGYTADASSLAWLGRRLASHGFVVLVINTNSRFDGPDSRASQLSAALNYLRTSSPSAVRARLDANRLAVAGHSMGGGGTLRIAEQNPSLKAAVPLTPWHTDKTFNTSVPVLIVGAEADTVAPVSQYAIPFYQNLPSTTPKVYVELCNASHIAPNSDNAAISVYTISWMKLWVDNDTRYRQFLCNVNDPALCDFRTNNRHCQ [LCC-A2]" recorded_result=0.0184

====

# Assay: PET hydrolysis product formed (TPA+MHET+BHET, UV-Vis) per mg enzyme (mmol/mg enzyme); higher = more PET depolymerisation activity; extreme values may be limits of the assay
# Setup conditions: PET substrate: aFilm; 70 °C; pH 9.5; 2 h
Note to self: values exactly at 0.2 are Fulfilled. So PET hydrolysis product formed at or above 0.2 is Fulfilled, below is Not fulfilled.

residue_string="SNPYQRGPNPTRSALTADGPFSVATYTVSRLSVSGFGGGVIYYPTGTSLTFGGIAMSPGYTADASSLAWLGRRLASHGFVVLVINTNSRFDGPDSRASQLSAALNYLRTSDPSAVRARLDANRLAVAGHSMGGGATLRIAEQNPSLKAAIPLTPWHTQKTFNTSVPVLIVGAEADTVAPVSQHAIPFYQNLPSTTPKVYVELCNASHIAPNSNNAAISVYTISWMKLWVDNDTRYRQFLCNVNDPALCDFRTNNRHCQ [LCC-ICCG DAQI]" class=Fulfilled
residue_string="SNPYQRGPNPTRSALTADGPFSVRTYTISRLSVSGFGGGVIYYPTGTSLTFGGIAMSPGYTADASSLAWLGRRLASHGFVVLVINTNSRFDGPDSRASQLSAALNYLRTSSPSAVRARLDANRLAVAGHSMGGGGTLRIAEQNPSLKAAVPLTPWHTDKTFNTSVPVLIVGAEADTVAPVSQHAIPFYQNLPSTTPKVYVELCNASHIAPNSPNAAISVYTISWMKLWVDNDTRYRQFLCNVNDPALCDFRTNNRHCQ [LCC-ICCG RIP]" class="Not fulfilled"
residue_string="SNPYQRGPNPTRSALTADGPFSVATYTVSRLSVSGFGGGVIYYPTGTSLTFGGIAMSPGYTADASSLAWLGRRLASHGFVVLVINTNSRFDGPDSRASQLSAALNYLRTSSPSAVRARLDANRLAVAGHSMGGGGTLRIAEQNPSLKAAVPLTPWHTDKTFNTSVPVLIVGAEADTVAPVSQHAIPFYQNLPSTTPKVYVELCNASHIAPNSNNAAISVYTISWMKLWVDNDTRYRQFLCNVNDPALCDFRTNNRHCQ [LCC-ICCG]" class=Fulfilled
residue_string="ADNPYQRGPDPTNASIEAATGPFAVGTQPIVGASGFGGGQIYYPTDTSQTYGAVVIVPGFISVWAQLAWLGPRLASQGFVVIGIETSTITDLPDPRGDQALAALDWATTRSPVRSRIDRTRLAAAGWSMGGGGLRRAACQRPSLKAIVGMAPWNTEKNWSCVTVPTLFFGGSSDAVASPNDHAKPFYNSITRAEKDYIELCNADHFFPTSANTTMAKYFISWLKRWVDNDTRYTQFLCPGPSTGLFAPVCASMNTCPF [CaPETaseM9]" class="Not fulfilled"
residue_string="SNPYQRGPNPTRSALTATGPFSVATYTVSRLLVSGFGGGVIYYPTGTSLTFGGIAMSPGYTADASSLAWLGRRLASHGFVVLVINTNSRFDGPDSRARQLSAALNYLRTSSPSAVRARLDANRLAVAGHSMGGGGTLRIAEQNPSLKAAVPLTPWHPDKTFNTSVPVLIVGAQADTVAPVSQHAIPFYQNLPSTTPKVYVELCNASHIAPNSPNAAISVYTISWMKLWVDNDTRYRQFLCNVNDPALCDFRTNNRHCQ [LCC-ICCG I6M]" class="Not fulfilled"

====

# Assay: PET hydrolysis product formed (TPA+MHET+BHET, UV-Vis) per mg enzyme (mmol/mg enzyme); higher = more PET depolymerisation activity; extreme values may be limits of the assay
# Setup conditions: PET substrate: cryPow; 60 °C; pH 6.5; 24 h
Assay metric: PET hydrolysis product formed

residue_string="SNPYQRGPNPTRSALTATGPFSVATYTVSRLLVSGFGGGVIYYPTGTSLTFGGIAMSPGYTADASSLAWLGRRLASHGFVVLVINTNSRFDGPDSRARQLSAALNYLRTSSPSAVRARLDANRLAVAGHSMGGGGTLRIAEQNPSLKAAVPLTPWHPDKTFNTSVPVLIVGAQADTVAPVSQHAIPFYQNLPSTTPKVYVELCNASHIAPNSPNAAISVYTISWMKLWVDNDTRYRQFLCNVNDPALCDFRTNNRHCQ [LCC-ICCG I6M]" recorded_result=0.0726

====

# Assay: MHET released, HPLC; higher = more MHET released; extreme values may be limits of the assay
# Setup conditions: PET substrate: cryPow; 60 °C; pH 8.5; 24 h
Note to self: values exactly at 0.3 mM are Yes. So MHET released at or above 0.3 mM is Yes, below is No.

residue_string="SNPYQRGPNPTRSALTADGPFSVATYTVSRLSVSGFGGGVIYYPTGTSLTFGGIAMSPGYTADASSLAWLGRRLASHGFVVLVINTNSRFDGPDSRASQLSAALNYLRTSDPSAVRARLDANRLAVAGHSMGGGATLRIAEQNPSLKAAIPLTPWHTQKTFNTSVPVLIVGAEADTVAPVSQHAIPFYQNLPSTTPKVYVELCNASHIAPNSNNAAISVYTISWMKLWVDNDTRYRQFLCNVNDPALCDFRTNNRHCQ [LCC-ICCG DAQI]" class=No
residue_string="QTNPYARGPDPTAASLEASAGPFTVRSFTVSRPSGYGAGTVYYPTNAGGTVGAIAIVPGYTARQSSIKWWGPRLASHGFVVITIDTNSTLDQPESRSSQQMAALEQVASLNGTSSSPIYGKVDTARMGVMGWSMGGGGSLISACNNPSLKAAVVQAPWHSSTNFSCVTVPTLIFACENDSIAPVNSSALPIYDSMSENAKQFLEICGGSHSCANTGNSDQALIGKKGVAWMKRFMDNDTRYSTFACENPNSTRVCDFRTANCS [Z1-PETase]" class=Yes
residue_string="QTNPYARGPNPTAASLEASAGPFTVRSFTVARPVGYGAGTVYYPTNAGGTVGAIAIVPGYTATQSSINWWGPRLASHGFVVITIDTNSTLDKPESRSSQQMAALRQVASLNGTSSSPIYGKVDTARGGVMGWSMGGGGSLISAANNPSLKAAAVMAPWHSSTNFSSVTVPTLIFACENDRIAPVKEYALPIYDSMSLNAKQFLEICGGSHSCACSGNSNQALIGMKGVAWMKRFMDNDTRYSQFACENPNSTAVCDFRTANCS [HotPETase]" class=Yes
residue_string="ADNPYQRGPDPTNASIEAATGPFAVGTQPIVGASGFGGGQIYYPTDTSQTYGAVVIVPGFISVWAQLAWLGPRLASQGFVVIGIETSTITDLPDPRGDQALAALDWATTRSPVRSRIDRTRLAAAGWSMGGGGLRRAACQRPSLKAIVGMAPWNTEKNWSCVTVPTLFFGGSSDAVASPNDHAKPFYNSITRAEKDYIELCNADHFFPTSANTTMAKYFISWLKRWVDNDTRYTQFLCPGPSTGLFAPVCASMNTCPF [CaPETaseM9]" class=No
residue_string="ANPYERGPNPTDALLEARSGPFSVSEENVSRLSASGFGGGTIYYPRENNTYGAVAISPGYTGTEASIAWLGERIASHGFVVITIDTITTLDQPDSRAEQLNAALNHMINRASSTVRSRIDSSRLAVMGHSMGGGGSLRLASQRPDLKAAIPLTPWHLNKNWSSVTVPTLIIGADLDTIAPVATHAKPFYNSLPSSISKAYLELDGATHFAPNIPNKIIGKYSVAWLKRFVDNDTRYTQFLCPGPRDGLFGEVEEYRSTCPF [TfCut2]" class=No
residue_string="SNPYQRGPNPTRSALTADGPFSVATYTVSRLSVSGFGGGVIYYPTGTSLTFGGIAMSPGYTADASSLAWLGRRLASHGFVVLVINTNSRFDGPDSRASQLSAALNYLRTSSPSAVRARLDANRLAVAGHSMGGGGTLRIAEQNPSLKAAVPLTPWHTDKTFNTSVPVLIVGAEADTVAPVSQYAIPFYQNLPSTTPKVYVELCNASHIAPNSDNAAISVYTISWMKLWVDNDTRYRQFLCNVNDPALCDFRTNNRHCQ [LCC-A2]" class=No
